assay: nonspecific effects on YFP-HEK293 ionomycin response – cell-based, parental YFP-HEK293, YFP quench, counter-screen for TMEM16A inhibitor project (AID 652233); settings: parental YFP-HEK293, iodide YFP quench, at 10 µM;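 also: ratio is mean of duplicate wells from kinetic YFP trace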
Hit rate of the full screen: of about 2,300 compounds, fewer than 10 were called active. Only a sample is shown.
The threshold is inclusive: YFP ratio F(max-min)/F0 of exactly -1 counts as class 1; values below receive class 0.

See these solved cases before continuing.
[
  {
    "COMPOUND": "Cc1ccc(-c2noc(CSc3nnnn3-c3ccccc3)n2)cc1",
    "ASSIGNED_CATEGORY": "class 1"
  },
  {
    "COMPOUND": "Cn1c(CCN2CCCCCC2)nc2cc(NC(=O)Nc3ccccc3)ccc21",
    "ASSIGNED_CATEGORY": "class 0"
  },
  {
    "COMPOUND": "COc1ccc(Cl)cc1NC(=O)CCS(=O)(=O)c1cc2c(cc1C)NC(=O)CO2",
    "ASSIGNED_CATEGORY": "class 1"
  },
  {
    "COMPOUND": "CCOC(=O)C1=C(CN2CCc3ccccc32)NC(=O)NC1c1cccc([N+](=O)[O-])c1 (stereo not given)",
    "ASSIGNED_CATEGORY": "class 0"
  },
  {
    "COMPOUND": "Cc1[nH]n(-c2cccc(Cl)c2)c(=O)c1-c1ccc(Cl)cc1",
    "ASSIGNED_CATEGORY": "class 1"
  },
  {
    "COMPOUND": "Cc1nc2ccccc2cc1OCc1ccc(F)cc1",
    "ASSIGNED_CATEGORY": "class 1"
  },
  {
    "COMPOUND": "COC(=O)c1ccc(COC(=O)c2c(C)nn(Cc3ccccc3Cl)c2Cl)o1",
    "ASSIGNED_CATEGORY": "class 0"
  }
]

Q: Could you verify whether the entry `Cc1cc(C=O)c(C)n1-c1ccc(NC2CCCCC2)c([N+](=O)[O-])c1` shows YFP ratio F(max-min)/F0 of no less than -1?
Ans: class 1

* * *

assay: nonspecific effects on YFP-HEK293 ionomycin response – cell-based, parental YFP-HEK293, YFP quench, counter-screen for TMEM16A inhibitor project (AID 652233); settings: parental YFP-HEK293, iodide YFP quench, at 10 µM;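 also: ratio is mean of duplicate wells from kinetic YFP trace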
Fewer than 10 of roughly 2,300 compounds were called active. The list is a sample of the results.
MEASURED_ATTRIBUTE: YFP ratio F(max-min)/F0

[
  {
    "COMPOUND": "Cc1cc(C)cc(NS(=O)(=O)c2ccc(Oc3ncc(C(F)(F)F)cc3Cl)cc2)c1",
    "YFP ratio F(max-min)/F0": "-0.961 (inactive)"
  },
  {
    "COMPOUND": "Cc1ccc(-n2[nH]c(C)c(/C=N/N3C(=O)c4cccc5cccc(c45)C3=O)c2=O)cc1",
    "YFP ratio F(max-min)/F0": "-0.991 (inactive)"
  }
]

Q: Endpoint output: YFP ratio F(max-min)/F0 of `COc1ccc(-n2c(C)cc(C(=O)CSc3nnc(-c4cccs4)o3)c2C)cc1` . Value?
Ans: -1.16 (inactive)

Q: Endpoint output: YFP ratio F(max-min)/F0 of `Cn1c(CN2CCOCC2)nc2cc(NC(=O)c3ccc(Cl)cc3)ccc21` . Value?
Ans: -0.87 (inactive)

Q: Endpoint output: YFP ratio F(max-min)/F0 of `CN1c2ccc(C=O)c3c(C=O)ccc(c23)N(C)C1(C)C` . Value?
Ans: -1 (inactive)

Q: Endpoint output: YFP ratio F(max-min)/F0 of `CN(c1cccc(NC(=O)c2ccc(CN3CCc4ccccc4C3)cc2)c1)S(C)(=O)=O` . Value?
Ans: -0.916 (inactive)
